B1: NCF4 (parent)
chain: FGPDSKSSALACTLPTLPAKVYVG

Variants of: B1
Assay: protein stability index of a GFP-peptide fusion (GPS, HEK-293T) (PSI 1-6); higher = more stable;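 also: lentivirally expressed fusions sorted by FACS into six bins by GFP to DsRed ratio, PSI derived from sequencing read proportions per bin multiplied by bin number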
Details: c terminus: a fixed tail appended
READOUT_TYPE: protein stability index
Lab note: jot the number down without any unit.

MUTATION_KEY	protein stability index
A9N	2.49
K6Y	1.43
A9T	2.44
T16Y	2.45
V23S	2.62
S5A	2.34
L14R	2.32
V23A	2.29

State the recorded protein stability index for this entry: V23T
2.96

State the recorded protein stability index for this entry: C12Q
2.36
